These measurements were taken from patent US20250114345A1.

Biological target: p300 (Homo sapiens)
Construct: host or cells: A549 P300 HiBit cells
Sequence (Q09472 whole entry): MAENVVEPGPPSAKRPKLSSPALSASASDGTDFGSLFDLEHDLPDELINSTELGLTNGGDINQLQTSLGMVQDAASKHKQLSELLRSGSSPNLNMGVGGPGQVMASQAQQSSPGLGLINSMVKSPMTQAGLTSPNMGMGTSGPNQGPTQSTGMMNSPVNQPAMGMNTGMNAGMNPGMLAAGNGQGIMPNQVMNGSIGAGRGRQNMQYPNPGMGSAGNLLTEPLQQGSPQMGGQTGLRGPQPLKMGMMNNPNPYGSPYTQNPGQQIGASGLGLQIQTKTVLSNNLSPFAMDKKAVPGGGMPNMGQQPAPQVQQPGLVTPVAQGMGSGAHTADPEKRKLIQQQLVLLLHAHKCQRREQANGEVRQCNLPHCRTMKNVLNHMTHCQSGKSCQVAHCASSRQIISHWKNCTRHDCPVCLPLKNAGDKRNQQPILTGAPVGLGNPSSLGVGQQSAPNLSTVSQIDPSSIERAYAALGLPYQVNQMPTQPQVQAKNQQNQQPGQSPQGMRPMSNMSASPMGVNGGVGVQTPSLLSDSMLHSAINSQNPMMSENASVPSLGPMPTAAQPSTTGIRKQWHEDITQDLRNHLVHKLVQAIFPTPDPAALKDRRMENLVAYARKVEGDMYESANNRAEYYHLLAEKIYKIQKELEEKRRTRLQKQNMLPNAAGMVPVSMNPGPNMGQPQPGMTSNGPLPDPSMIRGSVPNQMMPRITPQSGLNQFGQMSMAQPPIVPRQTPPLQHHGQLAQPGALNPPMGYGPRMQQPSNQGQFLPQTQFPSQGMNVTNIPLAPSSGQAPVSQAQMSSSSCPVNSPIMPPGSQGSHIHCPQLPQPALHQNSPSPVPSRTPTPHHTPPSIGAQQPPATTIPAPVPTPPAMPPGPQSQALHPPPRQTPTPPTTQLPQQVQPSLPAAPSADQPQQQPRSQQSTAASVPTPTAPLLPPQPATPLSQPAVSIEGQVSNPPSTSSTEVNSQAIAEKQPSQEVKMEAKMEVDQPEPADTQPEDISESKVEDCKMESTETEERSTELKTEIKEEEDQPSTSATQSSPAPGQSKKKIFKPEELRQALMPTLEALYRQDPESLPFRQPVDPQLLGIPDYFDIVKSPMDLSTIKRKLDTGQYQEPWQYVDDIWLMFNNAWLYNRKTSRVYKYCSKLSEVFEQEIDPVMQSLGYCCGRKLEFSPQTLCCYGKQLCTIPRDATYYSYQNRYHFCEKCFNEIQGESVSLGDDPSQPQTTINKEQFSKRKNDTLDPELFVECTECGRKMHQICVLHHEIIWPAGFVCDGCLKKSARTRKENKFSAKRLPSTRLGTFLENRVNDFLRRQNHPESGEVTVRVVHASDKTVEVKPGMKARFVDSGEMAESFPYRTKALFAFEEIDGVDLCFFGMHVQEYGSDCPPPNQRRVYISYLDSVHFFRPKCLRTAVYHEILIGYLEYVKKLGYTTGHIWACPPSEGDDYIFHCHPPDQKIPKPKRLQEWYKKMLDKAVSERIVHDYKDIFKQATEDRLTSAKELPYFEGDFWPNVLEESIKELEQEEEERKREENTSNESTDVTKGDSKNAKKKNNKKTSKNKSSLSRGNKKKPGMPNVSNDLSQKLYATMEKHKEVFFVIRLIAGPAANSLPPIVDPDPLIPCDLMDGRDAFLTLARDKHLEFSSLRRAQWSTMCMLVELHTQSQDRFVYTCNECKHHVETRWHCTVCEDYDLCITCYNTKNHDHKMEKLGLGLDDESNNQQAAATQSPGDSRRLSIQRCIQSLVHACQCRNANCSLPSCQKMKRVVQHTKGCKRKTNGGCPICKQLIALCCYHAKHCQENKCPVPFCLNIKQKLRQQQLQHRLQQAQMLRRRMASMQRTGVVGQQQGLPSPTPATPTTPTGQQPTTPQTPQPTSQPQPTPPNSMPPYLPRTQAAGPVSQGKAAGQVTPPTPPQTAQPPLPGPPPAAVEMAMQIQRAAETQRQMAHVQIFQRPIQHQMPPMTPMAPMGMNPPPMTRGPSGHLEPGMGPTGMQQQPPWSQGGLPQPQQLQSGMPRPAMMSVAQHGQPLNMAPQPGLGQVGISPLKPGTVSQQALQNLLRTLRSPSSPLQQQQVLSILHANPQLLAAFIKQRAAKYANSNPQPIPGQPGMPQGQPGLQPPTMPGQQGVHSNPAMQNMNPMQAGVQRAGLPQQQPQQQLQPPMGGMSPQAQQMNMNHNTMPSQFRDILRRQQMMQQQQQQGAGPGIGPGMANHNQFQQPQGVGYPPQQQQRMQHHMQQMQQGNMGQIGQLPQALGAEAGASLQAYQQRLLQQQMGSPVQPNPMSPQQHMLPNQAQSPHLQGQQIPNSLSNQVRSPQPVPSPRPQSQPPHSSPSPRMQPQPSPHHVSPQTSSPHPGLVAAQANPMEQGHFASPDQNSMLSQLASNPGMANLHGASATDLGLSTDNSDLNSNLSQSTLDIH
Test: P300 degradation, HiBit technology in A549 P300 HiBit cells (2 h)
Assay type: cell-based
Settings: A549, A549 P300 HiBit cells, 2 hrs post treatment
// Dmax lookup, one value per entry

| compound | Dmax |
| --- | --- |
| Cc1cc2c(N3CCCc4nc(-c5ccc(C(=O)NCC#Cc6cc7c(C8CCC(=O)NC8=O)nccc7o6)nc5)ncc43)cc(C3CCOCC3)cc2n(C)c1=O (stereo not drawn) | > 80% |
| Cc1cc(-c2ncc(N(C)c3cc(C(C)C)c4c(c3)n(C)c(=O)n4C)cc2C#N)cnc1C(=O)NCC#Cc1ccc2occ(C3CCC(=O)NC3=O)c2c1 (stereo not drawn) | > 80% |
| Cc1cc2c(N3CCCc4nc(-c5cnc(C(=O)NCC#Cc6cc7c(C8CCC(=O)NC8=O)cccc7o6)c(Cl)c5)ncc43)cccc2n(C)c1=O (stereo not drawn) | > 80% |
| Cc1cc(-c2ncc3c(n2)OCCN3c2cc(C3CCOCC3)c3c(c2)n(C)c(=O)n3C)cnc1C(=O)NCC#Cc1cc2c(C3CCC(=O)NC3=O)cccc2o1 (stereo not drawn) | > 80% |
| Cc1cc2c(-c3cccc4cc(-c5ccc(C(=O)NCC#Cc6ccc7occ(C8CCC(=O)NC8=O)c7c6)nc5)ncc34)nc(N3CC(C)(O)C3)cc2n(C)c1=O (stereo not drawn) | > 80% |
| Cc1cc(-c2ncc(N(C)c3cc(C(C)C)c4c(c3)n(C)c(=O)n4C)cn2)cnc1C(=O)NCC#Cc1cccc(NC2CCC(=O)NC2=O)c1 (stereo not drawn) | > 80% |
| Cc1c(-c2ccc(C(=O)NCC#Cc3ccc4occ(C5CCC(=O)NC5=O)c4c3)nc2)ncc2c(-c3ccc4c(c3)n(C)c(=O)n4C)cccc12 (stereo not drawn) | > 80% |
| Cc1cc(-c2ncc(Nc3cc(C4CCOCC4)c4c(c3)n(C)c(=O)n4C)cn2)cnc1C(=O)NCC#Cc1cc2c(C3CCC(=O)NC3=O)cccc2o1 (stereo not drawn) | 40 to 59% |
| CC(C)c1cc(-c2cccc3cc(-c4ccc(C(=O)NCC#Cc5cnc6c(c5)N(C5CCC(=O)NC5=O)CC6)nc4)ncc23)cc2c1n(C)c(=O)n2C (stereo not drawn) | 20 to 39% |
| Cc1cc(-c2ncc(N(C)c3cc(C4CCOCC4)c4c(c3)n(C)c(=O)n4C)cn2)cnc1C(=O)NCC#Cc1ccc2occ([C@@H]3CCC(=O)NC3=O)c2c1 | > 80% |
| Cn1c(=O)n(C)c2cc(N3CCCc4nc(-c5ccc(C(=O)NCC#Cc6cc7c(C8CCC(=O)NC8=O)cccc7o6)nc5)ncc43)ccc21 (stereo not drawn) | > 80% |
| Cc1cc(-c2cc3cccc(-c4ccc5c(c4)n(C)c(=O)n5C)c3cn2)cnc1C(=O)NCC#Cc1ccc2occ([C@H]3CCC(=O)NC3=O)c2c1 | > 80% |
